Reported cell viability values follow for various compounds
System: NOMO1
Assay: cell viability relative to DMSO control; higher = less cytotoxic
Settings: HPLM + 10% dialyzed FBS; 48 h; 0.19 µM
Field format: number, assumed %, no unit text.

COc1cc(OC)c(/C=C/[S+](=O)([O-])Cc2ccc(OC)c(NCC(=O)[O][Na])c2)c(OC)c1    60.3

Consider the compound `CN(C)C1=CC=C(C=C1)C(C2=CC=C(C=C2)N(C)C)=C/3\C=C/C(/C=C3)=[N+](C)C` and give its measured cell viability.
26.6

Okay, and `CC[C@H](C)[N]1C=C(C)C2=C1C=C(C=C2C(=O)NC\C3=C(C)\C=C(\C)NC3=O)C4=CC=C(N=C4)N5CCNCC5` ?
129

Cool, now `C[C@@H]1[C@H](O)[C@@H](C)/C=C/C=C/C=C/C=C/C=C/C=C/C=C/[C@H](O[C@@H]2O[C@H](C)[C@@H](O)[C@H](N)[C@@H]2O)C[C@@H]2O[C@](O)(C[C@@H](O)C[C@@H](O)[C@H](O)CC[C@@H](O)C[C@@H](O)CC(=O)O[C@H]1C)C[C@H](O)[C@H]2C(=O)O`
116

Could you do the same for `C#C[C@]1(O)CC[C@H]2[C@@H]3CCc4cc(O)ccc4[C@H]3CC[C@@]21C` , please?
105

###

System: SEM cells
Assay: cell viability relative to DMSO control; higher = less cytotoxic
Conditions: RPMI 5 mM glucose + 10% dialyzed FBS; 48 h; 46.1 µM
Note to self: cell viability under 60% means y, ties and anything higher get n.

Illustrative cases are given below, each with its answer.
Cc1[nH]c2ccccc2c1CCNCc1ccc(/C=C/C(=O)NO)cc1    y
CC(C)=CC[C@@H](O)C/1=C/C(=O)C2=C(O)C=CC(=C2C1=O)O    y
OC[C@H]1OCC(O1)[N@@]2C=CC(N)=NC2=O (stereo partly specified)    n
O=C(O[C@H]1C[C@H]2CC[C@@H](C1)[N+]21CCCC1)C(O)(c1ccccc1)c1ccccc1.[Cl-]    n
O=C(Nc1ccc(F)c(C(F)(F)F)c1)Nc1nnc(-c2ccncc2)s1    n

Below: the item to evaluate.
Confirm or reject: cell viability of `C[S+](=O)([O-])N1CCc2c(-c3cnc(N)nc3)nc(N3CCOCC3)nc21` lies strictly below 60%
y

###

Tested on: P12-Ichikawa
Assay: cell viability relative to DMSO control; higher = less cytotoxic
Conditions: RPMI 5 mM glucose + 10% dialyzed FBS; 48 h; 0.19 µM
Binary call on cell viability with cut-off 90%: strictly below means Criterion met, and equality or higher means Criterion not met.

S=P(N1CC1)(N1CC1)N1CC1    Criterion not met
Nc1nc(N)c2nc(CNc3ccc(C(=O)NC(CCC(=O)O)C(=O)O)cc3)cnc2n1 (stereo not given)    Criterion met
Cc1[nH]c2ccccc2c1CCNCc1ccc(/C=C/C(=O)NO)cc1    Criterion not met
N[C@H](CSC(c1ccccc1)(c1ccccc1)c1ccccc1)C(=O)O    Criterion not met
CC(C)CC(=O)N[C@H](C(=O)N[C@H](C(=O)N[C@@H](CC(C)C)[C@@H](O)CC(=O)N[C@@H](C)C(=O)N[C@@H](CC(C)C)[C@@H](O)CC(=O)O)C(C)C)C(C)C    Criterion not met

Record `CC(C)C1=C(O)C=C(O)C(=C1)C/2=N/NC(=O)N2C3=CC4=C(C=C3)[N](C)C=C4` : is its cell viability strictly below 90%?
Criterion met

Queued: `CSCC[C@@H](NC(=O)[C@@H](Cc1ccccc1)NC(=O)CNC(=O)CNC(=O)[C@@H](N)Cc1ccc(O)cc1)C(=O)O`
Criterion not met

Input `C\C1=C(\C=C(C#N)/C(=O)N1)C2=C[N]3C=CN=C3C=C2`
Criterion met

Field entry: `C=C[C@H]1CN2CC[C@H]1C[C@H]2[C@H](O)c1ccnc2ccc(OC)cc12`
Criterion not met

Origin of values: the supplement of paper PMC11451515
